Data origin: patent US20260176265A1

target: Phospho-EGFR (Tyr1068) in H1975 cells (Homo sapiens, UniProt P00533, L858R/T790M); assay: HTRF pEGFR/total EGFR assay in H1975 cells; settings: compound 3 hours, ratio pEGFR/total EGFR
Sequence (P00533 25-1210 T790M/L858R): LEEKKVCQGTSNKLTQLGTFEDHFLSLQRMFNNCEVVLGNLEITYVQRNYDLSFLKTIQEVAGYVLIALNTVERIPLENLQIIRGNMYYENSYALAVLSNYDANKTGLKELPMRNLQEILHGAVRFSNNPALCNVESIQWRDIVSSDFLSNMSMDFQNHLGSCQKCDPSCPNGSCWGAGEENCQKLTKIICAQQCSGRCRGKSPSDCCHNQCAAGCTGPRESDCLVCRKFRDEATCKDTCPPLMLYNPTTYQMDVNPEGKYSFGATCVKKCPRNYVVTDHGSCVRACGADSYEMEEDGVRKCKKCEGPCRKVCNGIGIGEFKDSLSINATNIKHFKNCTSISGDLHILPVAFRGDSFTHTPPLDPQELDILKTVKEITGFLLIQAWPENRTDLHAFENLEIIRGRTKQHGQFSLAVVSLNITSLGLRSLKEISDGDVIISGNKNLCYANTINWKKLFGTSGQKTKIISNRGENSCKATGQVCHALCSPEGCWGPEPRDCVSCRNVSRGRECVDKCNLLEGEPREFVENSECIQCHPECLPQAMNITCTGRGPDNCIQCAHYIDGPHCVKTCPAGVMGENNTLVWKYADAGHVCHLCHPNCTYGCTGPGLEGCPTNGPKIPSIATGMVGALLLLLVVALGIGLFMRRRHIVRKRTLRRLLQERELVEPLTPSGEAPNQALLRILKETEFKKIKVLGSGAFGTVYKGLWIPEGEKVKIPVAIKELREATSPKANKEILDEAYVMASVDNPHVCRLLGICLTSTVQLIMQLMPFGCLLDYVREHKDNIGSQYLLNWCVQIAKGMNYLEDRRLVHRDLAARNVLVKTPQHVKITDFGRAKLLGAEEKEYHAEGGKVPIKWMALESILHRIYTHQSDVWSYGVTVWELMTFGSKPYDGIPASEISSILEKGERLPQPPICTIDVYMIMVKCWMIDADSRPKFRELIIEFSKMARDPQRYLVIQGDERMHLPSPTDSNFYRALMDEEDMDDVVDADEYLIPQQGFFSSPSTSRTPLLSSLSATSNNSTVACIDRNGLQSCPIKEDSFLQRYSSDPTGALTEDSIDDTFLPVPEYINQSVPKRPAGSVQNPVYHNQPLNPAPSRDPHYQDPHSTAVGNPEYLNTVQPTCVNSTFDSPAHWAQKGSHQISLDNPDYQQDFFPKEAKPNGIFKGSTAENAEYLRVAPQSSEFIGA
METRIC: IC50

> print(dat)
                                   compound                            assayed.target          result
1  C#Cc1cc(NC(=O)N2Cc3ccccc3C2)nc2nc(Nc3ccc(N4CCN(C)CC4)cc3)ncc12  Phospho-EGFR (Tyr1068) in H1975 cells (Homo sapiens, UniProt P00533, L858R/T790M)       > 3000 nM
2  C#Cc1cc(OC)nc2nc(Nc3ccc(N4CCN(C)CC4)c(NCc4ccn(C)n4)c3)ncc12  Phospho-EGFR (Tyr1068) in H1975 cells (Homo sapiens, UniProt P00533, L858R/T790M)       > 3000 nM
3  C#Cc1cc(N2C(=O)NCC23CCCC3)nc2nc(Nc3ccc(N4CCOCC4)cc3)ncc12  Phospho-EGFR (Tyr1068) in H1975 cells (Homo sapiens, UniProt P00533, L858R/T790M)  500 to 1000 nM

Now turn to the next compound.
Name the reported IC50 value associated with the compound "C#Cc1cc(NC(=O)NC2CCCC2)nc2nc(Nc3ccc(N(C)C(C)=O)cc3)ncc12"
500 to 1000 nM

----------
molecular target: Phospho-EGFR (Tyr1068) in H1975 C797S cells (Homo sapiens, UniProt P00533, C797S/L858R/T790M); construct: endogenous in cells; assay: HTRF pEGFR/total EGFR assay in H1975 C797S cells; details: H1975 C797S cells (CRISPR), compound 3 hours, ratio pEGFR/total EGFR
Sequence (P00533 25-1210 T790M/C797S/L858R): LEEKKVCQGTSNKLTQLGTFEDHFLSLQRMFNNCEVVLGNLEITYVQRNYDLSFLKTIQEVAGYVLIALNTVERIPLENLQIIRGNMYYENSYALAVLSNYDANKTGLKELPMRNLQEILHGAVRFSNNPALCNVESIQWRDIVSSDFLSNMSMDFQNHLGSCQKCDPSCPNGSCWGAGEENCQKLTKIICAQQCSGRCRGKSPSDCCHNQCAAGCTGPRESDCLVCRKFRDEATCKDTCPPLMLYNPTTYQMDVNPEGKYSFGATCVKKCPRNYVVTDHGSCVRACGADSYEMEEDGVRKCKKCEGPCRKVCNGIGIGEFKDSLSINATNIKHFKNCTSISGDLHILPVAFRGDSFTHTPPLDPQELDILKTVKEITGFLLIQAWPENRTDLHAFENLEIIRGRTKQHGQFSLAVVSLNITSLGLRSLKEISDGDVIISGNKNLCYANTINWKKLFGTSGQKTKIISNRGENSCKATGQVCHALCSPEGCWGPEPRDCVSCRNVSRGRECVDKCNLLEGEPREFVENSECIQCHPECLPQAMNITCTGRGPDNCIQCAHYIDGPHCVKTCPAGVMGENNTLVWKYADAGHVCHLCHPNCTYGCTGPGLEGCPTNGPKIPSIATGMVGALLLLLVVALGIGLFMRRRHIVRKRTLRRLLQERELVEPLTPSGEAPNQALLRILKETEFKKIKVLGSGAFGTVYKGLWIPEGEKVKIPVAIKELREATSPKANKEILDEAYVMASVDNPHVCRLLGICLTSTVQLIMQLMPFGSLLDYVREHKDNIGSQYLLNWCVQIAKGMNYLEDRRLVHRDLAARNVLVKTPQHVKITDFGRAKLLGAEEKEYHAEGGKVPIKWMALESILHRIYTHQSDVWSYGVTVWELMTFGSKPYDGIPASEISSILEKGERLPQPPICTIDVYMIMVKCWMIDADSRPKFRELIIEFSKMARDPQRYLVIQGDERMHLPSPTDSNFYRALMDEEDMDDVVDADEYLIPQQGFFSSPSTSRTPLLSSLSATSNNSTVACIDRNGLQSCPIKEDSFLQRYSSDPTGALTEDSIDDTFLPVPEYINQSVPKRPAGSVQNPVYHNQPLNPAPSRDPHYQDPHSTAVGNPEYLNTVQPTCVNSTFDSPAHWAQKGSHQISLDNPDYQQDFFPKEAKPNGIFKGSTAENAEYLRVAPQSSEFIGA
IC50 by entry:

Consider the reported IC50 for these molecules:
> print(dat)
                                   molecule     result
1  C#Cc1cc(NC(=O)NC2CCCC2)nc2nc(Nc3ccc(N(C)C(=O)CN(C)C)cc3)ncc12 [Example 83]   < 500 nM
2  C#Cc1cc(NC(=O)NCc2ccccc2)nc2nc(Nc3ccc(N4CCN(C)CC4)cc3)ncc12 [Example 39]   < 500 nM
3  C#Cc1cc(NC(=O)NC2(C)CCOC2)nc2nc(Nc3ccc(N4CCN(C)CC4)cc3)ncc12 (stereo not drawn) [Example 62]   < 500 nM
4  C#Cc1cc(NC(=O)N2Cc3ccccc3C2)nc2nc(Nc3ccc(N4CCN(C)CC4)cc3)ncc12 [Example 58]  > 3000 nM
5  C#Cc1cc(NC(=O)NC2CN(C(C)=O)C2)nc2nc(Nc3ccc(N4CCN(C)CC4)cc3)ncc12 [Example 54]  > 3000 nM

Name the reported IC50 value associated with the molecule C#Cc1cc(N2C(=O)N(C)CC23CCCC3)nc2nc(Nc3ccc(OCCN(C)C)cc3)ncc12 [Example 107]
1000 to 3000 nM

Now consider C#Cc1cc(NC(=O)OC2CCCCC2)nc2nc(Nc3ccc(N4CCN(C)CC4)cc3)ncc12 [Example 66] and answer again.
> 3000 nM

Now consider C#Cc1cc(N2C(=O)N(C)CC23CCCC3)nc2nc(Nc3ccc(N(C)C(C)=O)cc3)ncc12 [Example 105] and answer again.
> 3000 nM

Now consider C#Cc1cc(NC(=O)NC2CCCC2)nc2nc(Nc3ccc(N(C)C(C)=O)cc3)ncc12 [Example 77] and answer again.
> 3000 nM

Now consider C#Cc1cc(NC(=O)OC2CCCC2)nc2nc(Nc3ccc(N4CCN(C)CC4)cc3)ncc12 [Example 65] and answer again.
> 3000 nM

Now consider C#Cc1cc(N2C(=O)NCC23CCCC3)nc2nc(Nc3ccc(N(C)C(=O)CN(C)C)cc3)ncc12 [Example 94] and answer again.
1000 to 3000 nM

Now consider C#Cc1cc(N(C)C(=O)NC2CCCC2)nc2nc(Nc3ccc(N4CCN(C)CC4)cc3)ncc12 [Example 73] and answer again.
< 500 nM

Now consider C#Cc1cc(NC(=O)Nc2ncc[nH]2)nc2nc(Nc3ccc(N4CCN(C)CC4)cc3)ncc12 [Example 59] and answer again.
1000 to 3000 nM

Now consider C#Cc1cc(N(C)C(=O)N(C)C2CCCC2)nc2nc(Nc3ccc(N4CCN(C)CC4)cc3)ncc12 [Example 123] and answer again.
> 3000 nM

Now consider C#Cc1cc(N2C(=O)OCC23CCCC3)nc2nc(Nc3ccc(N4CCN(C)CC4)cc3)ncc12 [Example 114] and answer again.
500 to 1000 nM

Now consider C#Cc1cc(N2C(=O)NCC23CCCC3)nc2nc(Nc3ccc(N(C)C(C)=O)cc3)ncc12 [Example 93] and answer again.
1000 to 3000 nM

Now consider C#Cc1cc(NC(=O)NC2CCCC2)nc2nc(Nc3ccc(N4CCN(C)CC4)c(NCC4CCC4)c3)ncc12 [Example 63] and answer again.
1000 to 3000 nM

Now consider C#Cc1cc(N2C(=O)OCC2CC2CCCC2)nc2nc(Nc3ccc(N4CCN(C)CC4)cc3)ncc12 (stereo not drawn) [Example 112] and answer again.
500 to 1000 nM
